pIC50: −log10 of the molar value.
This section lists pIC50 readings for Full length DGKα (D21-10BG, SignalChem) (Homo sapiens, UniProt P23743).
quantity_name: pIC50

>>> assay_result("CCC(c1ccc(C2CC2)nc1)N1C[C@H](CC)N(c2cc(=O)n(C)n3cc(CC#N)nc23)C[C@H]1CC (single isomer, unassigned) [Compound A89b]")
5.82
>>> assay_result("CC[C@H]1CN(C(C)c2ccc3nc(C)sc3n2)[C@H](CC)CN1c1c(C#N)c(=O)n(C)n2cc(CC#N)nc12 (single isomer, unassigned) [Compound A112b]")
7.22
>>> assay_result("CC[C@H]1CN(C(C)c2ccc3nccnc3c2)[C@H](CC)CN1c1cc(=O)n(C)n2cc(CC#N)nc12 (single isomer, unassigned) [Compound A14a]")
6.66
>>> assay_result("CC[C@H]1CN(C(C)c2ccc(OC)cc2)[C@H](CC)CN1c1cc(=O)n(C)n2cc(CC#N)nc12 (some centres unmarked)")
7.64

A: CC#CCc1cn2c(n1)c(N1C[C@@H](CC)N(C(C)c3ccc4nc(C)sc4n3)C[C@@H]1CC)cc(=O)n2C (single isomer, unassigned) [Compound A115a]
B: CC[C@@H]1CN(c2cc(=O)n(C)n3cc(COC)nc23)[C@@H](C)CN1C(C)c1ccc(C(F)(F)F)cc1F (single isomer, unassigned) [Compound A16a]
C: Cc1cnc2ccc(C(C)N3C[C@H](C)N(c4c(C#N)c(=O)n(C)n5cc(CC#N)nc45)C[C@H]3C)cc2n1 (some centres unmarked)
D: CC[C@@H]1CN(c2cc(=O)n(C)n3cc(CC#N)nc23)[C@@H](C)CN1C(C)c1ccc2ccsc2n1 (some centres unmarked)
Task: Put the items in order so that reported pIC50 rises from first to last. A complete answer lists every label in the requested sequence.
Result: B, C, A, D
(B: 5.33, C: 5.64, A: 6.54, D: 7.74)

I: CC[C@H]1CN(C(C)c2ccc3nc(C)sc3n2)[C@H](CC)CN1c1cc(=O)n(C)n2cc(C=NOC)nc12 (single isomer, unassigned) [Compound A124bc]
II: CC[C@@H]1CN(c2cc(=O)n(C)n3cc(CC#N)nc23)[C@@H](C)CN1C(C)c1ccc2nccnc2c1 (single isomer, unassigned) [Compound A13b]
III: CC[C@H]1CN(C(C)c2ccc3scnc3c2F)[C@H](CC)CN1c1cc(=O)n(C)n2cc(CC#N)nc12 (single isomer, unassigned) [Compound A66b]
IV: CC#CCc1cn2c(n1)c(N1C[C@@H](CC)N(C(C)c3ccc4ncsc4c3F)C[C@@H]1CC)cc(=O)n2C (single isomer, unassigned) [Compound A117a]
V: CC[C@H]1CN(C(C)c2ccc3nc(C)sc3n2)[C@H](CC)CN1c1cc(=O)n(C)n2cc(C=NOC)nc12 (single isomer, unassigned) [Compound A124d]
Task: Arrange by pIC50, high to low. Output spec: labels arranged per the requested ranking.
Result: V, IV, I, III, II
(V: 8.23, IV: 7.66, I: 7.11, III: 5.79, II: 5.38)

P: [2H]C([2H])([2H])c1nc2ccc(C(C)N3C[C@H](CC)N(c4cc(=O)n(C)n5cc(CC#N)nc45)C[C@H]3CC)cc2s1 (single isomer, unassigned) [Compound A96a]
Q: CC(c1ccc2c(c1)OC(C)(C)CO2)N1C[C@H](C)N(c2c(C#N)c(=O)n(C)n3cc(CC#N)nc23)C[C@H]1C (single isomer, unassigned) [Compound A27b]
R: CC[C@@H]1CN(c2cc(=O)n(C)n3cc(CC#N)nc23)[C@@H](C)CN1C(C)c1ccc2nc(C)sc2n1 (single isomer, unassigned) [Compound A84a]
Task: List by increasing pIC50. List the labels in the requested order.
Result: Q, R, P
